Molecular target: T1, RA peptide (XAKLDEESILKQK-FITC, X = R)
T1 construct: also called peptide with N-terminal arginine
T1 peptide: RAKLDEESILKQK(FITC)
Experiment: fluorescence polarization titration, PS1122 0-5000 nM
No end group written: not given here. *: point of attachment. FITC = O=C1OC2(c3ccc(O)cc3Oc3cc(O)ccc32)c2ccc(NC(=S)*)cc21
reported.endpoint: Kd (nM)
Express your answer in nM, writing the number without its unit.

Value lookup for Kd; key = PS1122 (designed binder, PS621 with T47L, I63E, E70T; on chip labeled with streptavidin-tetraCy3) MHSKFSHAGRICGAKFKVGEPIYRCKECSFDDTCVLCVNCFNPKDHLGHHVYTTICTEFNNGECDCGDKTAWNHTLFCKAEEG 70
